- Tested on: OVCAR-4 ovarian
- Test: NCI-60 one-dose screen, 48 h (100 = growth as untreated, 0 = no growth, -100 = all killed)
- Run Parameters: 10 µM
This is part of a sample that, as a whole, favours compounds with a hit. Of some 83,000 tested, about 20% had one in any assay.
# growth >= 90% gives met, anything below gives not met

Say whether O=C(O)c1cccc(CN2CCN(c3cc4c(cc3F)c(=O)c(C(=O)O)cn4C3CC3)CC2)c1O shows growth of 90% or more. met

Say whether C[C@]12CCc3nc(Nc4ccccc4)sc3C1=CC[C@@H]1[C@@H]2CC[C@]2(C)/C(=N/NC(N)=S)CC[C@@H]12 shows growth of 90% or more. not met

Say whether COc1ccccc1S(=O)Nc1ccccc1 (stereo not given) shows growth of 90% or more. met

Say whether COc1cc(OC)c(/C=C/C(=O)c2c(N)cc(OC)cc2OC)c(OC)c1 shows growth of 90% or more. not met

Say whether CCCCCCCCN(CCCCCCCC)CC(O)c1ccc(Cl)c(C)c1Cl (stereo not given) shows growth of 90% or more. met

Say whether CCc1ccc(C2=C/C(=C/c3ccccc3)C(=O)N2CCc2ccc(S(N)(=O)=O)cc2)cc1 shows growth of 90% or more. met

Say whether O=C1CC(c2ccccc2)Cc2nc3ccc(Cl)cc3cc21 (stereo not given) shows growth of 90% or more. not met

Say whether O=C1/C(=C\c2cccn2Cc2ccccc2)c2ccccc2N1c1c(Cl)cccc1Cl shows growth of 90% or more. not met

Say whether COc1ccc(C(=O)CSc2nccc(Nc3ccc(C(=O)O)cc3)n2)cc1 shows growth of 90% or more. met
